These measurements were taken from the supplement of paper PMC6757056.

Kindly supply the reported FACS-Seq fitted mean (log10) values for the records listed here.
B1: library; a variant is named by its letters at N, in order (parent)
chain: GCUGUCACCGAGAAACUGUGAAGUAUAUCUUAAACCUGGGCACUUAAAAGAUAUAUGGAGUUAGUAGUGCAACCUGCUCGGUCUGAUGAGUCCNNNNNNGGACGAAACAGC

- Variants of: B1
- ASSAY_NOTES: FACS-Seq fitted mean relative fluorescence mCherry/BFP without ligand (log10 relative fluorescence); HEK293T; ligand: cyclic di-GMP (c-di-GMP-II aptamer); higher = higher reporter protein expression
- MEASUREMENT_PARAMETERS: ligand present: no
Please state the value as a number alone, without comment.

Please look up its FACS-Seq fitted mean (log10): "ACAGUU" -0.579

Please look up its FACS-Seq fitted mean (log10): "UACAGA" -0.198

Please look up its FACS-Seq fitted mean (log10): "AUUAAA" -0.425

Please look up its FACS-Seq fitted mean (log10): "CGGUAA" -0.662

Please look up its FACS-Seq fitted mean (log10): "GCCAGG" -0.568

Please look up its FACS-Seq fitted mean (log10): "UAGAAA" -0.272

Please look up its FACS-Seq fitted mean (log10): "AAUAAA" -0.411

Please look up its FACS-Seq fitted mean (log10): "CUUCAU" -0.264

Please look up its FACS-Seq fitted mean (log10): "AAGGGU" -0.547

Please look up its FACS-Seq fitted mean (log10): "CCUCCU" -0.211

Please look up its FACS-Seq fitted mean (log10): "AGGGAG" -0.66

Please look up its FACS-Seq fitted mean (log10): "CAAAAA" -0.703

Please look up its FACS-Seq fitted mean (log10): "AAAGCU" -0.569

Please look up its FACS-Seq fitted mean (log10): "ACGAAA" -0.618

Please look up its FACS-Seq fitted mean (log10): "AACUCC" 0.000732

Please look up its FACS-Seq fitted mean (log10): "CUAGAA" -0.5

Please look up its FACS-Seq fitted mean (log10): "CGCGUA" -0.52

Please look up its FACS-Seq fitted mean (log10): "GCUUAA" -0.0927

Please look up its FACS-Seq fitted mean (log10): "GAAAGU" -0.387

Please look up its FACS-Seq fitted mean (log10): "AUAUCC" -0.758

Please look up its FACS-Seq fitted mean (log10): "CAUAGU" -0.641

Please look up its FACS-Seq fitted mean (log10): "UGCGUU" -0.0716
